Cut-off 1 on MDR1-MDCK efflux ratio: below means label 1, at or above means label 0.

input-smiles	classification
Cc1nc2cc(NC(=O)CCc3c(C)noc3C)ccc2o1	label 0
c1csc(-c2csc3nc(CN4CCOCC4)nc(N4CCc5[nH]ncc5C4)c23)c1	label 0
Cc1ccc(C(=O)C2CCN(CC(=O)NC(=O)Nc3ccccc3)CC2)c(C)c1	label 1
Cc1cn(CCN2CCN(c3ccccc3-c3cc(C#N)cc(C(=O)NCCCN4CCCC4)c3)CC2)c2ccccc12	label 1
Cc1ccc(F)c(N(C#N)Cc2nccn2C(F)F)c1	label 1
OC1CCN(c2ncc(-c3cnccn3)c(-c3cccs3)n2)CC1	label 0
Cc1ccc(CNC/C=C/c2ccccc2)cn1	label 1
N#Cc1cccnc1NCCc1cn2c(n1)CCCC2	label 0
COc1ccc(Cl)cc1-c1cccc(C(=O)NCCN2CCCC2=O)c1	label 0
Cc1nc(-c2cc(C)on2)n(CCc2ccccc2)n1	label 1
Cn1cncc1-c1ncccc1C(=O)N1CCCC1	label 0

---

Entry flag: MET if MDR1-MDCK efflux ratio reaches 4; NOT MET if it does not.

molecule	classification
Cc1nc(NCc2ccc(F)c(Cl)c2)n(C)n1	NOT MET
Cc1ccc(=O)n(CCOc2cc(F)cc(Br)c2)n1	NOT MET
c1ccc(Nc2nc(N3CCOCC3)nc(N3CCOCC3)n2)cc1	NOT MET
Cc1cccc(NC(=O)c2cccnc2N2CCCCC2)n1	NOT MET
NCCOc1cccc(CC(=O)N2CCC(F)(F)CC2)c1	MET
Cc1cc(Nc2ccc(F)cn2)cc(C2CCN(C(=O)Cn3nc(C)ccc3=O)C2)n1 (stereo not given)	MET
CN(Cc1ccc(N)nc1)c1nc2cc(F)ccc2o1	MET
CN(C(=O)C1CCN(c2ncccn2)CC1)C1CCCCCCC1	NOT MET
Cc1cc(Nc2cc(N)ncn2)c(=O)n2c1C(=O)NC21CCCCC1	MET
NC(=O)c1cnc(NC2CC2)nc1CCNC(=O)C1(c2cccc(F)c2)CCOCC1	MET
O=C(O)c1nc(-c2ccccc2)oc1-c1ccccc1	NOT MET
COc1cc(Nc2c(C#N)cnc3cc(OCCCN4CCN(C)CC4)c(OC)cc23)c(Cl)cc1Cl	MET
COC(=O)c1ccc(NC(=O)N(C)Cc2ccccc2CN2CCCC2)cc1	MET
Cc1ccc(NC(=O)CN2C(=O)CN(C)C2=O)cc1C	NOT MET
COc1ccc(CCNCc2ccc(-c3ccccc3)o2)cc1OC	NOT MET
O=C1CCCN1CCCc1nc(Cc2c(Cl)cccc2Cl)n[nH]1	MET
Clc1cnc(NCC2(CN3CCCC3)CC2)nc1	NOT MET
COc1ccnc(N2CC(n3nc(C)cc3C)C2)n1	NOT MET
CN(C)C(=O)CN1CCN(C(=O)c2ccc3ccccc3c2O)CC1	NOT MET
CCN(CC)C(=O)c1ccc(NC(C)=O)cc1	NOT MET
Cc1ccc2c(c1)C(=O)CC1(CCN(C(=O)c3ccc4nc(C)cc(O)c4c3)CC1)O2	MET
CCCS(=O)(=O)c1nc(NC2CC2)cc(-c2ccc3c(ccn3C3CC(C)(C)NC(C)(C)C3)c2)n1	MET
Oc1ccc(CN2CCN(c3cccc(Cl)c3)CC2)cc1	NOT MET
CSCC(=O)Nc1nc(-c2ccc(C3CCCCC3)cc2)cs1	NOT MET
COc1cc2c(cc1OC)CN(C(=O)C1CCCN(C(C)=O)C1)CC2 (stereo not given)	MET
Cc1noc(NCc2c(C)nn(C)c2C)n1	NOT MET
Cc1ccc(S(=O)(=O)Nc2ccc3c(c2)c(C(=O)C(F)(F)F)cn3CC(=O)N[C@@H](CC(C)C)C(=O)O)cc1	MET
Cc1ccc(F)c(-c2noc(N)c2C)c1	NOT MET
N[C@H](Cc1c[nH]c2ccccc12)C(=O)N/N=C/c1ccc2nccnc2c1	MET
C[C@@H]1c2nnn(-c3ncc(F)cn3)c2CCN1C(=O)c1cccc(C(F)(F)F)c1Cl	NOT MET
CN(CCN1CCCCC1)c1cncc(C(N)=O)n1	MET
Cc1n[nH]c(C)c1CCCN(C)c1cncc(C(=O)N(C)C)n1	MET
O=C(Cn1c(=O)c2cccn2c2ccccc21)NCCCN1CCCC1	MET
Cc1ccc(Cn2nc(C(=O)N[C@@H]3C(C)(C)[C@@H]4CC[C@@]3(C)C4)cc2-c2ccc(Cl)c(C)c2)cc1	NOT MET
CN(C[C@@H]1COCCO1)S(=O)(=O)Nc1ccc2ccc3ncc(-c4cnn(C)c4)cc3c(=O)c2c1	MET
Cc1cccc(C)c1CNC1(CCO)CCOCC1	NOT MET
O=C(CCOc1ccccc1)N1CCCC(c2n[nH]cc2-c2ccc(Cl)cc2)C1 (stereo not given)	MET
OCCOc1ccccc1OCc1ncc(Cl)cc1Cl	NOT MET
COc1cc(OC)cc(N(CCNC(C)C)c2ccc3ncc(-c4cnn(C)c4)nc3c2)c1	MET
Cc1n[nH]c(-c2c(C)c3cc(F)ccc3n2C)n1	NOT MET
CCOCC(=O)N1CCC2(CCc3ccccc3O2)CC1	NOT MET
CO[C@H]1CC[C@H](C(=O)NC[C@H]2CC[C@H](c3nnc(-c4nccc5ccccc45)o3)CC2)CC1	MET
Cc1ccc2c(c1)cc(CNCCc1ccccc1)c1nnnn12	NOT MET
O=C(NCC1CCC2(CC1)OCCO2)c1[nH]nc2c1CCCC2	MET
COc1ccc(N)c(OCc2ccccc2)c1	NOT MET
